run-description: Solubility and sink factor in dissolution media at pH 2 and 6.8
experimental-conditions: pH 6.8, aqueous with cosolvent or surfactant or cyclodextrin, thermodynamic from solid, Solubility, pH 6.8 (50 mM NaH2PO4) w/0.5% CTAB
measured-attribute: solubility (µg/mL)
Supply the numeric figure in µg/mL, leaving out any unit text.

Given the compound CS(=O)(=O)c1ccc(Oc2cc(F)cc(C#N)c2)c2c1[C@H](O)[C@H](F)[C@@H]2F [compound of Formula (I)] , what is its reported solubility?
70

###

run-description: Solubility and sink factor in dissolution media at pH 2 and 6.8
experimental-conditions: pH 2, aqueous with cosolvent or surfactant or cyclodextrin, thermodynamic from solid, Solubility, pH 2.0 (0.01N HCl) w/1% SLS
measured-attribute: solubility (µg/mL)
The reply should be a number in µg/mL, with the unit left off.

Which measured solubility value corresponds to CS(=O)(=O)c1ccc(Oc2cc(F)cc(C#N)c2)c2c1[C@H](O)[C@H](F)[C@@H]2F ?
70
